# TESTED ON: Hypoxia-inducible factor 1-alpha (Mus musculus)
# METHOD SUMMARY: Inhibition of HIF-1alpha in mouse C2C12 cells transfected with HRE-driven firefly luciferase gene assessed as fold change in transcriptional activity at 300 uM pretreated with compound for 12 hr followed by hypoxic condition for 24 hrs by dual luciferase reporter gene assay
# Assay type: cell-based
# MEASUREMENT CONDITIONS: time 36.0 hrs
Assign true to entries whose fold change (FC) meets or exceeds 2; assign false to the rest.

Some solved cases for reference:
{"ITEM SMILES": "COc1ccc(-c2cccc(O[C@@H]3O[C@H](CO)[C@@H](O)[C@H](O)[C@H]3O)c2)cc1", "ASSIGNED CATEGORY": "true"}
{"ITEM SMILES": "OC[C@H]1O[C@@H](OCC2(c3ccc(O)cc3)CCC2)[C@H](O)[C@@H](O)[C@@H]1O", "ASSIGNED CATEGORY": "false"}
{"ITEM SMILES": "OC[C@H]1O[C@@H](OCCCc2ccc(O)cc2)[C@H](O)[C@@H](O)[C@@H]1O", "ASSIGNED CATEGORY": "false"}
{"ITEM SMILES": "COc1ccc(Cc2ccccc2O[C@@H]2O[C@H](CO)[C@@H](O)[C@H](O)[C@H]2O)cc1", "ASSIGNED CATEGORY": "false"}
{"ITEM SMILES": "OC[C@H]1O[C@@H](OCCc2ccc(F)cc2)[C@H](O)[C@@H](O)[C@@H]1O", "ASSIGNED CATEGORY": "false"}
{"ITEM SMILES": "COc1ccc(-c2ccc(O[C@@H]3O[C@H](CO)[C@@H](O)[C@H](O)[C@H]3O)cc2)cc1", "ASSIGNED CATEGORY": "true"}
{"ITEM SMILES": "COc1ccc(Cc2ccc(O[C@@H]3O[C@H](CO)[C@@H](O)[C@H](O)[C@H]3O)cc2)cc1", "ASSIGNED CATEGORY": "true"}
{"ITEM SMILES": "CC(C)(CO[C@@H]1O[C@H](CO)[C@@H](O)[C@H](O)[C@H]1O)c1ccc(O)cc1", "ASSIGNED CATEGORY": "false"}

Q: Could you verify whether the entry `COc1ccc(CCO[C@@H]2O[C@H](CO)[C@@H](O)[C@H](O)[C@H]2O)cc1` shows fold change (FC) of no less than 2?
Result: false

Q: Could you verify whether the entry `OC[C@H]1O[C@@H](OCCc2ccccc2)[C@H](O)[C@@H](O)[C@@H]1O` shows fold change (FC) of no less than 2?
Result: false
